Reference for the values: the RNAGym collection of RNA variant scans (doi:10.7554/elife.90254)

B1: OR4K15 (parent)
chain: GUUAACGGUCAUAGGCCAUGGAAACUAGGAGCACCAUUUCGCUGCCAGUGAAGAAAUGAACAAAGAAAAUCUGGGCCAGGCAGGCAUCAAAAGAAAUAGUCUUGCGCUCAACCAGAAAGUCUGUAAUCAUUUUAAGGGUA

Variants of: B1
Assay: self-cleavage, relative activity (ratio to wild type); higher = more cleavage; in vitro, sequencing; the parent is a self-cleaving ribozyme
// label = t if self-cleavage is not less than 0.9, otherwise f

Worked cases, answers included:
INSERT INTO measurements (mutation_descriptor, label) VALUES
  ('A54G G84C', 'f'),
  ('U57A A125U', 't'),
  ('A62C U120C', 't');

Prompt line: Exam item: decide whether the reported self-cleavage for U26C C77U is at least 0.9.
Response line: t

Prompt line: Does the variant A22U U132A have recorded self-cleavage that is 0.9 or more?
Response line: t
